For each of the compounds below, state its IC50.
- Test target: SHP2 (Homo sapiens)
- Sequence (Q06124 whole entry): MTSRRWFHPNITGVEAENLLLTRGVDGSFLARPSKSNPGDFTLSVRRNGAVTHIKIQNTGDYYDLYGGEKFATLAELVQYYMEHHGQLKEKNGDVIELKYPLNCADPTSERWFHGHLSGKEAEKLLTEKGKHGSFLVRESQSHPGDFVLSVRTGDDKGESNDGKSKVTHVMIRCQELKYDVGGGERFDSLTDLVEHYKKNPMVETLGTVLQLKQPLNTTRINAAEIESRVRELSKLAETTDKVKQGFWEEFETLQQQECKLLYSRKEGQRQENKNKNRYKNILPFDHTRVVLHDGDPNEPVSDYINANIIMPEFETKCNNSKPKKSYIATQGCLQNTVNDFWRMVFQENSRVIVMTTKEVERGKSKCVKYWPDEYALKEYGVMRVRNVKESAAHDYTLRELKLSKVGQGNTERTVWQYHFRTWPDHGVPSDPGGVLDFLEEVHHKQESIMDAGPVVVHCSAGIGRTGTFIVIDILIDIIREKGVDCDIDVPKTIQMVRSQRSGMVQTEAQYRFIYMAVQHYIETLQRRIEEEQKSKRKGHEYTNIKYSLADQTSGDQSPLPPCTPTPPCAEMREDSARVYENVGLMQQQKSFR
- Protocol summary: SHP2 allosteric inhibitor enzyme activity assay (DiFMUP fluorescence)
- Assay type: biochemical
- Run parameters: class symbols

Substance smiles	IC50
N[C@@H]1c2ccccc2CC12CCN(c1nc3[nH]nc(C4=CCOc5ccccc54)c3c(=O)[nH]1)CC2	≤ 20 nM
CSc1cccc(C2(c3n[nH]c4nc(N5CCC6(CC5)Cc5ccccc5[C@H]6N)[nH]c(=O)c34)CC2)c1	≤ 20 nM

Next compound, please.
Incoming: What does the data say about its IC50? Entry: "Cc1ccc(C2(c3n[nH]c4nc(N5CCC6(CC5)CO[C@@H](C)[C@H]6N)[nH]c(=O)c34)CC2)cc1"
Outgoing: 20 to 60 nM
